test system: NPT; type: biochemical, Clostridium perfringens ATCC 21510
test.readout: action as phosphate acceptor

Tell me its action as phosphate acceptor given Cc1cn([C@H]2C[C@H](O)[C@@H](CO)O2)c(=O)[nH]c1=O [thymidine] as the entry.
phosphate acceptor

Tell me its action as phosphate acceptor given Nc1ccn([C@@H]2O[C@H](CO)[C@@H](O)[C@H]2O)c(=O)n1 [cytidine] as the entry.
phosphate acceptor

Tell me its action as phosphate acceptor given O=c1ccn([C@H]2C[C@H](O)[C@@H](CO)O2)c(=O)[nH]1 [deoxyuridine] as the entry.
phosphate acceptor

Tell me its action as phosphate acceptor given Nc1ccn([C@H]2C[C@H](O)[C@@H](CO)O2)c(=O)n1 [deoxycytidine] as the entry.
phosphate acceptor

The origin of these recorded values is patent US4330527A.
